Tested on: pig erythrocytes
Test: Hemolytic activity on pig erythrocytes
Type: cell-based
Details: 1 h at 37 °C, 6.25–100 µM, absorbance 570 nm, non-linear fit, n ≥ 3
No end group written: not given here.
Recorded measurements of HC10 (hemolytic concentration), one per entry
The figure you give is taken to be in µM; do not add the unit.

Answered examples (2):
FPFLLSLIPSAISAIKRL-NH2 [Uy234] :: 55.14
GFWGKLWEGVKNAI-NH2 [UyCT1] :: 31.5

Request: Kindly state the measured HC10 (hemolytic concentration) obtained for FLSTIWNGIKSLF-NH2 [D2] with pig erythrocytes.
Response: 2.94

Request: Okay, and ISQSDAILSAIWSGIKSLF-NH2 [Um2] ?
Response: 2.36

Request: Okay, and GFWGKLWEGVKSAI-NH2 [Um3] ?
Response: 70.48

Request: Okay, and GFWGKLLEGVKKAI-NH2 [D5] ?
Response: 110.86

Request: Okay, and FPFLKLSLKIPKSAIKSAIKRL-NH2 [D10] ?
Response: 149.75

Request: Okay, and ILSAIWSGIKSLF-NH2 [UyCT3] ?
Response: 15.78

Request: Okay, and IWSAIWSGIKGLL-NH2 [UyCT5] ?
Response: 2.39

Request: Okay, and IFKAIWSGIKSLF-NH2 [Um5] ?
Response: 11.944

Request: Okay, and GFWGKLWEGVKNAIKKK-NH2 [D11] ?
Response: 39.76

Request: Okay, and FLSTIWNGIKGLL-NH2 [Uy192] ?
Response: 35.85

Request: Okay, and ILSAIWSGIKGLL-NH2 [Uy17] ?
Response: 26.65

Request: Okay, and IFGAIWSGIKSLF-NH2 [D1] ?
Response: 15.50
